Test: label from the status in PepcDB records
recorded metric: protein production

>>> measured_result("DLRSLFQTTVTEVRKLLVADRVMIIKVRQNKNFSWGEIQAEAQTDDKLCLLPPKERVPLSSRWIDHFAKGLILAMDDTDDQRADFDQSMLALAKANLVVPLFSGDRLWGVLSVHQCDGPRVWESSDIEFALKIALNLGVALQQAELLTESQRRSTALQSALGEVEAQKDYLARIAEEERALTRVIEGIRQTL")
"failed"
>>> measured_result("MSTTYYWLCLLASIVFEVAGTSVMKLSQETWPLLGMGCMYLLLGLSYFFLARAVVKLPVGVAYAFWEGLGLTLITIVSVTLLDERLDAMRLAALGMVLAGTLLVHHGTAHGRDDEEAEAASGGEGRI")
"failed"
>>> measured_result("MNVFAFSISGGGSERSYKETEKTSAMTTTHSTKLQPSQAILFKMREDAPPLNLTEEMPPPFPTKANYLIHPVRLEHHHHHH")
"failed"

###

Experiment: label from the status in PepcDB records
recorded metric: protein production

>>> measured_result("MNTHQNRYSVQSKVSALINCRLFQSFITTVIVLNAISIGLETYAFFKPYQKVFFIVDCLFLTIFVIELSLKLFVQKQHFFKNNWNVFDFVIVAGSLILYNTNFVSVLRIFRVLRVLRTITSVPSLRRIVNALFMAIPTISSVIILMSIIFYVYAVIGTMFFSAIAPEYFGNLQLSLLTLFQTFTLESWASGIFRPIFAESGWSWLYFVSFIVIATFIMINLIVGEIVNNAQKISQEIEDETGELKEDTKEIKELRAEVKELKALLQTYITQNEKKD")
"failed"
>>> measured_result("MNDNYEVFAIKYATYQQRRRNENFLPADEHDAGLMPLDYYVWLLKSPARTILVDTGFNPPEAAARNREQSRCPIEALRLLDVAPDDIDDVIITHLHYDHAGNLEKIPRARFHIQDKEVEFATGRCMCHAPLRFAYSPADVSNFIHKLYAGRVVFHDGAGVVAPGVEVLHVGGHTKGLQAVRVMTQRGWVVLASDASHFYENLEAARPFPLVADVAEMLDGFERLVRAAGSPSHVVPGHDPAVMTRYPTHPRDPQGIALLHLPTLA")
"failed"
>>> measured_result("MQAFFANPAVSWTLLTTGGILLVVIWVLLSLAFLLLADRKIWAGVQMRKGPNVVGPFGLLQSFADFFKFVLKEIVIPAGADKVVFILAPLISLILAFVGWAVVPFAPGWVVSNLNVGILYLLAMSSLGVYGIIMGGWASNSKYPFLGALRSAAQMVSYEVSIGLIIITVILLAGSMNLSTIVEKQSGWIWNWNVFGGGLNNLVLLPVMVVAMGMFYISALAETNRPPFDLPEAESELVAGYQVEYSSTPYLLFMVAEYSNIVLMCAMISVLFFGGWNPGFPTDFLSSWHPFAANLFLALVFYAKICFWFFMFAMAKAIVPRYRYDQLMRLGWKVFLPTSLVLVAAVAAWRVFGPAA")
"failed"
>>> measured_result("MAKHVIIGAGSIGTNVARLLAEGGESVRIVTRSGSGPEHPLVDRVAADASDPSRLTELSRGAGVIYHCANPPSYTVWERLLPPLQTAAITAAKANDAVLALTGSLYAYGPQPGGRMNEHTPMAATGHKGRLRRRMWEQALAGGIRTVEVRGSDYIGKDANGIYSLLIKSALQKGKAAWITGHLDMPHTFTFNGDMAQALITLASEERAWGRPWHVPSAPAVTIRELARRYAVAAGRPPIKLIQIPRSVTRTAGLIVPIAREMAEMDYQWYAPFHMDATETTETFGLTATDLDTAVRNEVG")
"failed"
>>> measured_result("DTRWLAFNIQRAVFSDRRVREAITLAFDFEWMNKALFYNAWSRTNSYFQNTEYAARNYPDAAELVLLAPMKKDLPPEVFTQIYQPPVSKGDGYDRDNLLKADKLLNEAGWVLKGQQRVNATTGQPLSFELLLPASSNSQWVLPFQHSLQRLGINMDIRKVDNSQITNRMRNRDYDMMPRLWRAMPWPSSDLQISWSSEYINSTYNAPGVQSPVIDSLINQIIAAQGNKEKLLPLGRALDRVLTWNYYMLPMWYMA")
"failed"
